# log10 of ED50 per entry
- Organism: Cavia porcellus
- PROTOCOL SUMMARY: Dose that protects 50% of guinea pig from collapse was determined in guinea pig anaphylaxis assay
- Assay type: functional
- ASSAY CONTEXT: read-out: PD50
OBSERVED PROPERTY: log10 of ED50 (log10 of the value in mg/kg)

>>> df
                                   molecule  observed_property  test_result
0  OC(CCN1CCN(c2ccccc2)CC1)COc1ccccc1 (centres undefined)      log10 of ED50         1.60
1  Cl.Cl.OC(CCN1CCN(c2ccccn2)CC1)COc1ccc(F)cc1 (centres undefined)      log10 of ED50         1.14
2  Cl.Cl.OC(CCN1CCN(c2ccccn2)CC1)COc1ccc(Cl)cc1 (centres undefined)      log10 of ED50         1.01
3              Cn1c(=O)c2nc[nH]c2n(C)c1=O.O      log10 of ED50         1.88
4  CN(C)CCOC(c1ccccc1)c1ccccc1 [DIPHENHYDRAMINE]      log10 of ED50         1.37
5  Cl.OC(CCN1CCN(c2ccc(F)cc2)CC1)COc1ccc(F)cc1 (centres undefined)      log10 of ED50         0.49
6  OC(CCN1CCN(c2ccccc2)CC1)COc1ccc(Cl)cc1 (centres undefined)      log10 of ED50         0.83
7  Cl.OC(CCN1CCN(c2ccc(Cl)cc2)CC1)COc1ccc(F)cc1 (centres undefined)      log10 of ED50         0.89

The values you see were collected from ChEMBL document CHEMBL1124808.
